# Test Target: Endothelin-1 receptor (Rattus norvegicus, UniProt P26684)
# Sequence (P26684 whole entry): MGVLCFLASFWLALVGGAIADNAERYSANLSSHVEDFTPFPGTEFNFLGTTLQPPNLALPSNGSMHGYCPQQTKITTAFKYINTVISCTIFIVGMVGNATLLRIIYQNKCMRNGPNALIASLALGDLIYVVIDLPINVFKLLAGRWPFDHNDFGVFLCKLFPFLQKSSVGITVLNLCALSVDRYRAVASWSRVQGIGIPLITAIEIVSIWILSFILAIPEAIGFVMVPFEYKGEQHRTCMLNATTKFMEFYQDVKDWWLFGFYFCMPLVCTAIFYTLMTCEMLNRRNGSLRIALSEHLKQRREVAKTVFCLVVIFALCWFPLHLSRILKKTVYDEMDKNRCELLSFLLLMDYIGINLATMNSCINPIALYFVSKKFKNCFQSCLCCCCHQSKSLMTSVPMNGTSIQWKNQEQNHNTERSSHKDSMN
# Test: Inhibitory activity was evaluated against ET- A Binding to Endothelin A receptor in MMQ cell homogenates
Readout Type: pIC50
Answers are plain numbers, as −log10 of the molar value.

Cc1oc([C@@H](Cc2cn(C)c3ccccc23)NC(=O)[C@H](CC(C)C)NC(=O)NC2CC3CCC2C3)nc1C(=O)O (stereo in doubt; 15p)    6.35

Quick request: pIC50 for each listed item, please.
1. Cc1oc([C@@H](Cc2cn(C)c3ccccc23)NC(=O)[C@H](CC(C)C)NC(=O)n2ccc3ccccc32)nc1C(=O)O
2. Cc1oc([C@@H](Cc2cn(C)c3ccccc23)NC(=O)[C@H](CC(C)C)NC(=O)Nc2ccccc2F)nc1C(=O)O
3. Cc1oc([C@@H](Cc2cn(C)c3ccccc23)NC(=O)[C@H](CC(C)C)NC(=O)NC2CCCCC2C)nc1C(=O)O (stereo not given in full)
4. Cc1oc([C@@H](Cc2cn(C)c3ccccc23)NC(=O)[C@H](CC(C)C)NC(=O)N2CCCc3ccccc32)nc1C(=O)O
5. Cc1[nH]c([C@@H](Cc2cn(C)c3ccccc23)NC(=O)[C@H](CC(C)C)NC(=O)NC2CC3CCC2C3)nc1C(=O)O (stereo in doubt; 14p)

// result
1. 7.24
2. 7.77
3. 6.19
4. 7.48
5. 7.72

Quick request: pIC50 for each listed item, please.
1. Cc1oc([C@@H](Cc2cn(C)c3ccccc23)NC(=O)[C@H](CC(C)C)NC(=O)Nc2c(F)c(F)c(F)c(F)c2F)nc1C(=O)O
2. Cc1[nH]c([C@@H](Cc2cn(C)c3ccccc23)NC(=O)[C@H](CC(C)C)NC(=O)NC2CCC(C)CC2)nc1C(=O)O (stereo not given in full)
3. CNC(=O)c1nc([C@@H](Cc2c[nH]c3ccccc23)NC(=O)[C@H](CC(C)C)NC(=O)N2CCCCCC2)oc1C
4. Cc1[nH]c([C@@H](Cc2cn(C)c3ccccc23)NC(=O)[C@H](CC(C)C)NC(=O)NC2CCCCCC2)nc1C(=O)O
5. Cc1[nH]c([C@@H](Cc2c[nH]c3ccccc23)NC(=O)[C@H](CC(C)C)NC(=O)NC2CCCCC2)nc1C(=O)O
6. Cc1[nH]c([C@@H](Cc2cn(C)c3ccccc23)NC(=O)[C@H](CC(C)C)NC(=O)NC2CCCCC2C)nc1C(=O)O (stereo not given in full)
7. Cc1oc([C@@H](Cc2cn(C)c3ccccc23)NC(=O)[C@H](CC(C)C)NC(=O)Nc2ccc(F)cc2)nc1C(=O)O
8. Cc1[nH]c([C@@H](Cc2cn(C)c3ccccc23)NC(=O)[C@H](CC(C)C)NC(=O)NC2CCCC2)nc1C(=O)O

// result
5.45
6.85
5.52
7.22
7.12
7.74
5.72
7.43

// query Which pIC50 is listed for Cc1oc([C@@H](Cc2cn(C)c3ccccc23)NC(=O)[C@H](CC(C)C)NC(=O)N2CCCCCC2)nc1C(=O)O ?
// result 6.21

---

# Test Target: Endothelin receptor type B (Sus scrofa)
# Sequence (P35463 whole entry): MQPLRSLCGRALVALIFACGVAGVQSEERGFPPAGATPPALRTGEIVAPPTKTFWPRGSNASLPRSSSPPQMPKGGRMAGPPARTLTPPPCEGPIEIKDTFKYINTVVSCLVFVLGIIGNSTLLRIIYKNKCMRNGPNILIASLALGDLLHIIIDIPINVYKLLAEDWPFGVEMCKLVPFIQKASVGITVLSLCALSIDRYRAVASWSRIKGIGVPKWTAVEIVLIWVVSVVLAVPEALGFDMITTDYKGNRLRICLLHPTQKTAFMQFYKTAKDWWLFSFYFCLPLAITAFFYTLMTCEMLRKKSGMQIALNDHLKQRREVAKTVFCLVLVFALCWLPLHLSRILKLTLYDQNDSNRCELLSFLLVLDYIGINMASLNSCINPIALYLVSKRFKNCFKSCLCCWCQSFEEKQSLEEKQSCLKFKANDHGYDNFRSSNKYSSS
Kindly supply the reported pIC50 values for the records listed here.
Numbers only, as −log10 of the molar value.

Would you please look over these solved cases?
Cc1oc([C@@H](Cc2cn(C)c3ccccc23)NC(=O)[C@H](CC(C)C)NC(=O)NC2CCCC2)nc1C(=O)O    4.00
Cc1oc([C@@H](Cc2cn(C)c3ccccc23)NC(=O)[C@H](CC(C)C)NC(=O)Nc2ccccc2F)nc1C(=O)O    5.62

Now let's try a different one.
// query Which pIC50 is listed for Cc1oc([C@@H](Cc2cn(C)c3ccccc23)NC(=O)[C@H](CC(C)C)NC(=O)NC2CCCCCC2)nc1C(=O)O ?
// result 4.12
